target: Sphingosine 1-phosphate receptor 3 (Homo sapiens, UniProt Q99500); assay: Agonist activity at human recombinant S1P3 receptor expressed in CHO cells assessed as membrane-bound 35S-GTPgammaS incubated 30 mins prior to substrate addition measured after 1 hr by topcount scintillation counting analysis
Sequence (Q99500 whole entry): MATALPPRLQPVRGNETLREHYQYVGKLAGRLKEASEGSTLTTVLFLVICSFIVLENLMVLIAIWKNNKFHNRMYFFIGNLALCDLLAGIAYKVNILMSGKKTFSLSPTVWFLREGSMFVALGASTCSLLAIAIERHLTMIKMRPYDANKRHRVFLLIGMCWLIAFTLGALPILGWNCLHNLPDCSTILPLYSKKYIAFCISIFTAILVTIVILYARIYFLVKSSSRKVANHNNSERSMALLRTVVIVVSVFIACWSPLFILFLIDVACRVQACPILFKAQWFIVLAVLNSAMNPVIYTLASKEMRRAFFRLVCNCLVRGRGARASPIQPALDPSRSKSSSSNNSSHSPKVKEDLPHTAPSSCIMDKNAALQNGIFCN
pEC50: −log10 of the molar value.
readout.label: pEC50

Solved cases (5 shown):
{"molecule": "CCc1cc(CCC(=O)c2sc(OC)c3c2CCC(C)(C)C3)cc(C)c1OCC(O)CNC(=O)CO (racemic)", "pEC50": 5.41}
{"molecule": "CCc1cc(-c2noc(-c3scc4c3CCC(C)(C)C4)n2)cc(C)c1OCC(O)CNC(=O)CO (racemic)", "pEC50": 6.50}
{"molecule": "CCc1cc(-c2noc(-c3sc(CC)c4c3CCC(C)(C)C4)n2)cc(C)c1OC[C@@H](O)CNC(=O)CO", "pEC50": 8.05}
{"molecule": "CCc1sc(C(=O)CCc2cc(C)c(OC[C@@H](O)CO)c(C)c2)c2c1CCCC2", "pEC50": 5.42}
{"molecule": "Cc1cc(CCC(=O)c2sc(C)c3c2CCC(C)(C)C3)cc(C)c1OCC(O)CNC(=O)CO (racemic)", "pEC50": 6.41}

I = CCc1cc(CCC(=O)c2sc(C)c3c2CCC(C)(C)C3)cc(C)c1OCC(O)CNC(=O)CO (racemic)
II = Cc1cc(-c2noc(-c3scc(CC(C)C)c3C)n2)cc(C)c1OCC(O)CNC(=O)CO (racemic)
Exercise: Which of the two items, I and II , has the greater recorded pEC50? Let me know the label of the one you choose.
Solution: II

###

test system: Plasma; experiment: AUC (0 to 24 hrs) in Wistar rat plasma at 10 mg/kg, po; format: ADME, organism-based; set-up: time < 24 hr, dose 10 mg/kg, route oral; conditions: in vivo
readout.label: AUC (ng·h/mL)

I = CCc1cc(-c2noc(-c3sc(CC)c4c3CCC(C)(C)C4)n2)cc(C)c1OCCNCCC(=O)O
II = CCc1cc(-c2noc(-c3sc(CC)c4c3CCC(C)(C)C4)n2)cc(C)c1OC[C@@H](O)CNC(=O)CO
Exercise: Compare I and II and name the one whose reported AUC is smaller. Let me know the label of the one you choose.
Solution: II
(II: 1660 ng·h/mL, I: 16300 ng·h/mL)

###

assay: Plasma concentration in Wistar rat at 10 mg/kg, po after 3 hrs; assay type: ADME, organism-based; parameters: dose 10 mg/kg, route oral
readout.label: concentration at 3 h (ng/mL)

Solved cases (2 shown):
{"compound": "CCc1cc(CCC(=O)c2sc(CC)c3c2CCC(C)(C)C3)cc(C)c1OCC(O)CNC(=O)CO (racemic)", "concentration at 3 h, ng/mL": 32}
{"compound": "CCc1cc(-c2noc(-c3sc(CC)c4c3CCC(C)(C)C4)n2)cc(C)c1OC[C@@H](O)CNC(=O)CO", "concentration at 3 h, ng/mL": 132}

a = Cc1cc(-c2noc(-c3ccc(CC(C)C)s3)n2)cc(C)c1OCC(O)CNC(=O)CO (racemic)
b = CCc1ccc(-c2nc(-c3cc(C)c(OCC(O)CNC(=O)CO)c(C)c3)no2)s1 (racemic)
Exercise: Which of the two items, a and b , has the greater recorded concentration at 3 h? Let me know the label of the one you choose.
Solution: a

###

target: Sphingosine 1-phosphate receptor 1 (Homo sapiens, UniProt P21453); assay: Agonist activity at human recombinant S1P1 receptor expressed in CHO cells assessed as membrane-bound 35S-GTPgammaS incubated 30 mins prior to substrate addition measured after 1 hr by topcount scintillation counting analysis
Sequence (P21453 whole entry): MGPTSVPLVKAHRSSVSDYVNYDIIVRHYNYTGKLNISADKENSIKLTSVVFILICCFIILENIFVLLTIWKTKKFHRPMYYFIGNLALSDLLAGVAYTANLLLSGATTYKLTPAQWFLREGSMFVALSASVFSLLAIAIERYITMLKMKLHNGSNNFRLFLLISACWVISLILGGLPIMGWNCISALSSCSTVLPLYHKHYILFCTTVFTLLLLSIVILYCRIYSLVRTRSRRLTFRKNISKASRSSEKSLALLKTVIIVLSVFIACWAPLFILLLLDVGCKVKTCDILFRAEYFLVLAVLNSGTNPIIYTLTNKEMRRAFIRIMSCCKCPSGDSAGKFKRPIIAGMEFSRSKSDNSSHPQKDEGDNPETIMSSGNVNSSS
readout.label: EC50 (nM)

{"compound": "CCc1sc(C(=O)CCc2cc(C)c(OCC(O)CO)c(C)c2)c2c1C[C@@](C)(O)CC2 (mixture of isomers)", "measured.on": "Sphingosine 1-phosphate receptor 1 (Homo sapiens, UniProt P21453)", "unit.spec": "nM", "EC50": 79}

A = CCc1cc(-c2noc(-c3sc(CC)c4c3CCC3(CCCC3)C4)n2)cc(C)c1OC[C@@H](O)CNC(=O)CO
B = Cc1cc(CCC(=O)c2sc(C)c3c2CCC(C)(C)C3)cc(C)c1OCC(O)CNCCO (racemic)
Exercise: Which of the two items, A and B , has the greater recorded EC50? Let me know the label of the one you choose.
Solution: B

P = CCc1sc(C(=O)CCc2cc(C)c(OC[C@@H](O)CO)c(C)c2)c2c1CCCC2
Q = CCc1cc(CCC(=O)c2scc3c2CCC(C)(C)C3)cc(C)c1OC[C@@H](O)CNC(=O)CO
Exercise: Which of the two items, P and Q , has the greater recorded EC50? Let me know the label of the one you choose.
Solution: P
(P: 20 nM, Q: 4.8 nM)

P = Cc1cc(CCC(=O)c2sc(C)c3c2CCC(C)(C)C3)cc(C)c1OCC(O)CNC(=O)CO (racemic)
Q = CCCc1sc(C(=O)CCc2cc(C)c(OC[C@@H](O)CNC(=O)CO)c(CC)c2)c2c1CC(C)(C)CC2
R = Cc1cc(CCC(=O)c2sc(C)c3c2CCC(C)(C)C3)cc(C)c1OCCNCCO
Exercise: Returns the items ordered by EC50, from maximum to minimum. Ranked list of labels, please, in the requested order.
Solution: R, Q, P

###

target: UniProt Q99500; experiment: Agonist activity at human recombinant S1P3 receptor expressed in CHO cells assessed as membrane-bound 35S-GTPgammaS incubated 30 mins prior to substrate addition measured after 1 hr by topcount scintillation counting analysis; type: functional, cell-based
pEC50: −log10 of the molar value.
readout.label: pEC50

Solved cases (3 shown):
{"molecule": "CCCc1ccc(-c2nc(-c3cc(C)c(OCC(O)CNC(=O)CO)c(C)c3)no2)s1 (racemic)", "pEC50": 5.94}
{"molecule": "Cc1cc(CCC(=O)c2ccc(CC(C)C)s2)cc(C)c1OCC(O)CNC(=O)CO (racemic)", "pEC50": 6.23}
{"molecule": "Cc1cc(-c2noc(-c3sc(C)c(CC(C)C)c3C)n2)cc(C)c1OCC(O)CNC(=O)CO (racemic)", "pEC50": 7.13}

A = CCc1sc(C(=O)CCc2cc(C)c(OC[C@@H](O)CO)c(C)c2)c2c1CC(C)(C)CC2
B = CCc1cc(-c2noc(-c3sc(CC)c4c3CCC(C)(C)C4)n2)cc(C)c1OC[C@@H](O)CO
Exercise: Compare A and B and name the one whose reported pEC50 is smaller. Let me know the label of the one you choose.
Solution: A
(A: 6.90, B: 7.82)

A = CCc1cc(-c2noc(-c3sc(CC)c4c3CCCC4)n2)cc(C)c1OC[C@@H](O)CNC(=O)CO
B = Cc1cc(CCC(=O)c2sc(C)c3c2CCC(C)(C)C3)cc(C)c1OCCCO
Exercise: Compare A and B and name the one whose reported pEC50 is smaller. Let me know the label of the one you choose.
Solution: B

###

test: Cmax in Wistar rat mesenteric lymph at 10 mg/kg, po; assay type: ADME, organism-based, Mesenteric lymph node; parameters: dose 10 mg/kg, route oral
readout.label: Cmax (ng/mL)

{"chemical.smiles": "CCc1cc(-c2noc(-c3sc(CC)c4c3CCC(C)(C)C4)n2)cc(C)c1OCCNCCC(=O)O", "readout.label": "Cmax", "result.number": 9530}
{"chemical.smiles": "CCc1cc(-c2noc(-c3sc(CC)c4c3CCC(C)(C)C4)n2)cc(C)c1OC[C@@H](O)CNC(=O)CO", "readout.label": "Cmax", "result.number": 8090}
{"chemical.smiles": "CCc1cc(-c2noc(-c3sc(CC)c4c3CCC(C)(C)C4)n2)cc(C)c1OC[C@@H](O)CO", "readout.label": "Cmax", "result.number": 9050}

###

biological target: Sphingosine 1-phosphate receptor 3 (Homo sapiens); test: Agonist activity at human recombinant S1P3 receptor expressed in CHO cells assessed as membrane-bound 35S-GTPgammaS incubated 30 mins prior to substrate addition measured after 1 hr by topcount scintillation counting analysis
readout.label: EC50 (nM)

{"compound": "CCc1cc(-c2noc(-c3sc(CC)c4c3CCC3(CCCC3)C4)n2)cc(C)c1OC[C@@H](O)CNC(=O)CO", "measured.on": "Sphingosine 1-phosphate receptor 3 (Homo sapiens)", "readout.label": "EC50", "unit.spec": "nM", "result.number": 11}

I = Cc1cc(CCC(=O)c2sc(C)c(CC(C)C)c2C)cc(C)c1OCC(O)CNC(=O)CO (racemic)
II = Cc1cc(-c2noc(-c3sc(C)c4c3CCC(C)(C)C4)n2)cc(C)c1OCC(O)CNC(=O)CO (racemic)
III = CCc1cc(-c2noc(-c3sc(OC)c4c3CCC(C)(C)C4)n2)cc(C)c1OC[C@@H](O)CNC(=O)CO
IV = Cc1cc(CCC(=O)c2sc(C)c3c2CCC(C)(C)C3)cc(C)c1OC[C@H](O)CO
Exercise: Give the ascending ranking of the items by reported EC50. Ranked list of labels, please, in the requested order.
Solution: II, III, IV, I

I = CCc1cc(-c2noc(-c3sc(CC)c4c3CCC3(CC3)C4)n2)cc(C)c1OC[C@@H](O)CNC(=O)CO
II = CCc1cc(CCC(=O)c2sc(CC)c3c2CCC(C)(C)C3)cc(C)c1OCC(O)CNC(=O)CO (racemic)
III = Cc1cc(-c2noc(-c3cc(CC(C)C)c(C)s3)n2)cc(C)c1OCC(O)CNC(=O)CO (racemic)
Exercise: Returns the items ordered by EC50, from maximum to minimum. Ranked list of labels, please, in the requested order.
Solution: III, II, I

The reported measurements were obtained from ChEMBL document CHEMBL3120099.
